The entries below are paired with their reported kdis.
TARGET OR SYSTEM: T1, human SIRPγ-His monomer protein (human, UniProt Q9P1W8 29-360)
T1 construct: also called hSIRPγ
T1 sequence (Q9P1W8 29-360 limits assumed): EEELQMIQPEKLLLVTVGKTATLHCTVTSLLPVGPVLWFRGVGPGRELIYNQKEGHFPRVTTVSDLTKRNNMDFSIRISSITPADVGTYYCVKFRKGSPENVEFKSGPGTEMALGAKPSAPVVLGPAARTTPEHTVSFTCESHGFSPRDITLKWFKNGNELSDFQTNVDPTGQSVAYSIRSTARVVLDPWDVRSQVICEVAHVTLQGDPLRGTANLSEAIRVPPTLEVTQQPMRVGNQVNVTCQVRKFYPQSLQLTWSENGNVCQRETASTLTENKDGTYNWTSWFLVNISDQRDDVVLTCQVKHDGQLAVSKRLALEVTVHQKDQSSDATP
ASSAY SUMMARY: BLI Octet, V5-scFv PPE captured, SIRP-His 500 nM

Consider the following illustrative entries.
Antibody 10 (scFv, V domains shown, scFv in crude PPE, V5/myc-tagged) VH: QVQLVQSGAEVKKPGASVKVSCKASGGTFSNYDISWVRQAPGQGLEWMGMIDPSGGSTSYAQKFQGRVTMTRDTSTSTVYMELSSLRSEDTAVYYCARPYSSGWYYFDYWGQGTLVTVSS VL: DIQMTQSPSSLSASVGDRVTITCQASQDIHNYLNWYQQKPGKAPKLLIYDASNLETGVPSRFSGSGSGTDFTLTISSLQPEDFATYYCQQSYNTPPTFGQGTRLEIK : 0.001 to 0.01 s⁻¹
Antibody 33 (scFv, V domains shown, scFv in crude PPE, V5/myc-tagged) VH: QVQLVQSGAEVKKPGASVKVSCKASGYTFTSYYMHWVRQAPGQGLEWMGWMNPNSDNTGYAQKFQGRVTMTRDTSTSTVYMELSSLRSEDTAVYYCARVGVGYGYYYYGMDVWGQGTTVTVSS VL: DIQMTQSPSSLSASVGDRVTITCRAGQSIGDYLNWYQQKPGKAPKLLIYAASSLQSGVPSRFSGSGSGTDFTLTISSLQPEDFATYYCQQSYSTPWTFGQGTKVEIK : 0.001 to 0.01 s⁻¹

Prompt line: For Antibody 24 (scFv, V domains shown, scFv in crude PPE, V5/myc-tagged) VH: QVQLVQSGAEVKKPGASVKVSCKASGYTFTGYYMHWVRQAPGQGLEWMGIINPSGGSTNYAQKFQGRVTMTRDTSTSTVYMELSSLRSEDTAVYYCARGPIGYGMDVWGQGTLVTVSS VL: DIQMTQSPSSLSASVGDRVTITCRASQGIGNDLGWYQQKPGKAPKLLIYAASNLETGVPSRFSGSGSGTDFTLTISSLQPEDFATYYCLQHHSYPFTFGQGTKLEIK , write its kdis.
Response line: > 0.01 s⁻¹
